Assay: protein stability index of a GFP-peptide fusion (GPS, HEK-293T) (PSI 1-6); higher = more stable;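 note: 24-mer peptide tiles fused after GFP, lentivirally expressed, FACS-sorted into six equal bins by GFP/DsRed ratio, decoded by Illumina sequencing, PSI is the read-weighted mean bin number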
Settings: treatment: MLN4924 1 uM, 8 h; c terminus: native
sequences and their reported protein stability index
Returns: the value as a bare number; no unit string appended.

Before answering, review these 2 worked examples.
{"columns": ["CHAIN", "ASSAY_VALUE"],
 "data": [
  ["TKSHSFRAMCQNGKLVYPSCEEK [CFHR2]", 4.09],
  ["RDHIPRGKEELESLGGGKTPPGR [MOG]", 4.09]
]}

Consider the additional sequence presented here.
Ask: Quick one: protein stability index for HRDMKPDNILLDEHDTWLSYKSH [STK32A] ?
Reply: 3.94
